experimental endpoint: melting point

CC1(C(=O)NN)C(=O)Nc2cc3[nH]c(-c4ccncc4)nc3cc21 (centres undefined)	> 300 °C
CN(Cc1cccc2c1CN(C1CCC(=O)NC1=O)C2=O)C(=O)c1ccc(Cl)c(Cl)c1 (centres undefined)	228 to 230 °C
CCNC(=S)NS(=O)(=O)c1cc2c(cc1OCC)OCCC2CNC(=O)N1CC(C)=C(CC)C1=O (centres undefined)	178 to 180 °C
CCN1CCCC1CNC(=O)c1cc(-n2cnnn2)ccc1OC (centres undefined)	171 to 174 °C
CN(C)CCCOc1ccc2ccc(N)nc2n1	88 °C
COc1ccc(CN2C(=O)[C@H](CO)[C@H]2S(=O)(=O)C(C)(C)C)c(OC)c1	124 to 125 °C
CCCCNC(=O)NC(N)=O	129 to 131 °C
CC(OC(=O)C1(C(=O)O)Oc2ccc(C[C@@H](C)NC[C@H](O)c3cccc(Cl)c3)cc2O1)c1ccccc1 (some centres undefined)	71 to 79 °C
Nc1cnc(-c2ccc(F)cc2)n(CC(=O)N[C@@H](Cc2ccccc2)C(=O)C(F)(F)C(=O)NCc2ccccc2)c1=O	90 to 91 °C
COc1ccc(C(=O)Nc2ccc(-c3ccc(-c4noc(C)n4)cc3C)cc2)cc1CCCN(C)C	163 to 165 °C
O=C1CC(C(=O)O)(c2ccc(F)cc2)c2ccccc21 (centres undefined)	106 to 108 °C
COc1ccc(C)cc1NC(=O)Nc1ccc(N2CCN(C(=O)Nc3ncccc3C(=O)O)CC2)cc1	165 to 168 °C
CS(=O)(=O)NCCSc1cccc2nccn12	130 to 131 °C
Cn1nnnc1-c1ccccc1S(N)(=O)=O	176 to 179 °C
Cn1ncnc1COc1nc2c(-c3ccc(F)cc3)nncn2c1-c1ccccc1	130 °C
CCCn1cc(Cc2ccc(C(=O)OC)cc2OC)c2cc(C=CCC(=O)N(C)C)ccc21	122 to 124 °C
CCC(C(=O)Nc1c(C)cccc1C)N1C(=O)c2ccccc2C1=O (centres undefined)	195 to 196 °C
CNc1nc(-n2cc(C(=O)O)c(=O)c3cc(F)c(F)c(Cl)c32)c(F)cc1F	236 to 242 °C
CN(Cc1ccccc1)C1=N/C(=C\c2c[nH]c3ncc(Cl)cc23)C(=O)N1	310 °C
